The compounds listed here are annotated with their viability, T/C.
system: 519858-162-T-J1-PDC complex spheroid growth, % test/control; experiment: Anticancer human tumor 519858-162-T-J1-PDC patient-derived colon adenocarcinoma cell line growth inhibition [Asc]; settings: second compound 10 µM; first compound 0.0316 µM; hits give low values;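 note: seven day drug exposure begun three days after spheroid seeding; 100% = DMSO vehicle wells and lower values mean less viable spheroid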
PROPERTY: viability, T/C

1) O=C(c1ccc(F)c(F)c1Nc1ccc(I)cc1F)N1CC(O)([C@@H]2CCCCN2)C1 + Cc1c(S(C)(=O)=O)c(-c2cc(F)cc(N3CCN(c4ccc(NS(=O)(=O)c5ccc(NC(CCN6CCC(C(=O)OCCCP(=O)(O)O)CC6)CSc6ccccc6)c(S(=O)(=O)C(F)(F)F)c5)cc4)CC3)c2)c(-c2ccc(Cl)cc2)n1C(C)C: 47.1%
2) CNC(C)C(=O)NC1CN(S(=O)(=O)c2cccc(S(=O)(=O)N3CCC4CCC(C(=O)NC(c5ccccc5)c5ccccc5)N4C(=O)C(NC(=O)C(C)NC)C3)c2)CCC2CCC(C(=O)NC(c3ccccc3)c3ccccc3)N2C1=O (stereo not given) + Cc1c(S(C)(=O)=O)c(-c2cc(F)cc(N3CCN(c4ccc(NS(=O)(=O)c5ccc(NC(CCN6CCC(C(=O)OCCCP(=O)(O)O)CC6)CSc6ccccc6)c(S(=O)(=O)C(F)(F)F)c5)cc4)CC3)c2)c(-c2ccc(Cl)cc2)n1C(C)C: 70.2%
3) CCN1CCN(Cc2ccc(Nc3ncc(F)c(-c4cc(F)c5nc(C)n(C(C)C)c5c4)n3)nc2)CC1 + Cc1c(S(C)(=O)=O)c(-c2cc(F)cc(N3CCN(c4ccc(NS(=O)(=O)c5ccc(NC(CCN6CCC(C(=O)OCCCP(=O)(O)O)CC6)CSc6ccccc6)c(S(=O)(=O)C(F)(F)F)c5)cc4)CC3)c2)c(-c2ccc(Cl)cc2)n1C(C)C: 62.6%
4) O=C(c1cc(Cc2n[nH]c(=O)c3ccccc23)ccc1F)N1CCN(C(=O)C2CC2)CC1 + Cc1c(S(C)(=O)=O)c(-c2cc(F)cc(N3CCN(c4ccc(NS(=O)(=O)c5ccc(NC(CCN6CCC(C(=O)OCCCP(=O)(O)O)CC6)CSc6ccccc6)c(S(=O)(=O)C(F)(F)F)c5)cc4)CC3)c2)c(-c2ccc(Cl)cc2)n1C(C)C: 71.6%
5) C=C(F)C(=O)N1CCN(c2nc(OCC3CCCN3C)nc3c2CCN(c2cccc4cccc(Cl)c24)C3)CC1CC#N (stereo not given) + Cc1c(S(C)(=O)=O)c(-c2cc(F)cc(N3CCN(c4ccc(NS(=O)(=O)c5ccc(NC(CCN6CCC(C(=O)OCCCP(=O)(O)O)CC6)CSc6ccccc6)c(S(=O)(=O)C(F)(F)F)c5)cc4)CC3)c2)c(-c2ccc(Cl)cc2)n1C(C)C: 86.7%
6) C#Cc1c(F)ccc2cc(O)cc(-c3ncc4c(N5CC6CCC(C5)N6)nc(OCC56CCCN5CC(F)C6)nc4c3F)c12 (stereo not given) + Cc1c(S(C)(=O)=O)c(-c2cc(F)cc(N3CCN(c4ccc(NS(=O)(=O)c5ccc(NC(CCN6CCC(C(=O)OCCCP(=O)(O)O)CC6)CSc6ccccc6)c(S(=O)(=O)C(F)(F)F)c5)cc4)CC3)c2)c(-c2ccc(Cl)cc2)n1C(C)C: 62.9%
7) C=CC(=O)N1CCN(c2nc(=O)n(-c3c(C)ccnc3C(C)C)c3nc(-c4c(O)cccc4F)c(F)cc23)C(C)C1 (stereo not given) + Cc1c(S(C)(=O)=O)c(-c2cc(F)cc(N3CCN(c4ccc(NS(=O)(=O)c5ccc(NC(CCN6CCC(C(=O)OCCCP(=O)(O)O)CC6)CSc6ccccc6)c(S(=O)(=O)C(F)(F)F)c5)cc4)CC3)c2)c(-c2ccc(Cl)cc2)n1C(C)C: 52.9%
8) NC1CCC(NC2CC2c2ccccc2)CC1 (stereo not given) + Cc1c(S(C)(=O)=O)c(-c2cc(F)cc(N3CCN(c4ccc(NS(=O)(=O)c5ccc(NC(CCN6CCC(C(=O)OCCCP(=O)(O)O)CC6)CSc6ccccc6)c(S(=O)(=O)C(F)(F)F)c5)cc4)CC3)c2)c(-c2ccc(Cl)cc2)n1C(C)C: 55.4%
9) COc1c(OCCCN2CCOCC2)ccc2c3n(c(=NC(=O)c4cnc(N)nc4)nc12)CCN3 + Cc1c(S(C)(=O)=O)c(-c2cc(F)cc(N3CCN(c4ccc(NS(=O)(=O)c5ccc(NC(CCN6CCC(C(=O)OCCCP(=O)(O)O)CC6)CSc6ccccc6)c(S(=O)(=O)C(F)(F)F)c5)cc4)CC3)c2)c(-c2ccc(Cl)cc2)n1C(C)C: 71.1%
10) Cn1ncnc1[C@H]1c2n[nH]c(=O)c3cc(F)cc(c23)N[C@@H]1c1ccc(F)cc1 + Cc1c(S(C)(=O)=O)c(-c2cc(F)cc(N3CCN(c4ccc(NS(=O)(=O)c5ccc(NC(CCN6CCC(C(=O)OCCCP(=O)(O)O)CC6)CSc6ccccc6)c(S(=O)(=O)C(F)(F)F)c5)cc4)CC3)c2)c(-c2ccc(Cl)cc2)n1C(C)C: 61.3%
